# Tested on: SW-620 colon
# Method notes: NCI tumour cell line growth inhibition, 48 h
Observation type: TGI

Record excerpt, results attached:
Compound: Cn1c(=O)c2nc(NCCO)cnc2n(C)c1=O
Experimental system: SW-620 colon
TGI: > 100 µM

Compound: Cc1ccc(C)c2c(N=Nc3ccccc3[N+](=O)[O-])c(O)[nH]c12
Experimental system: SW-620 colon
TGI: > 100 µM

Compound: COc1cccc(C=C2N=C(C)N(n3c(-c4ccccc4)nc4ccccc4c3=O)C2=O)c1
Experimental system: SW-620 colon
TGI: > 100 µM

Compound: C[N+](C)(C)C(C1=CCCC1=O)c1ccccc1 (centres undefined)
Experimental system: SW-620 colon
TGI: 70.4 µM

Compound: Cc1nc2cccc([N+](=O)[O-])c2n1CCCN(C)C
Experimental system: SW-620 colon
TGI: > 100 µM

The reported TGI of the compound COC(=O)[C@@H](OC)[C@@H]1Cc2cc3cc(OC4CC(OC5CC(O)C(O)C(C)O5)C(O)C(C)O4)c(C)c(O)c3c(O)c2C(=O)[C@H]1OC1CC(OC2CC(OC3CC(C)(O)C(O)C(C)O3)C(O)C(C)O2)C(O)C(C)O1 (some centres undefined) was > 16.5 µM

Entry "O=C1c2c(c3c4ccccc4[nH]c3c3[nH]c4ccccc4c23)C(=O)N1Cc1ccccc1" ; TGI = 10.9 µM

TGI recorded for this compound, "COc1cc2ccc(CC(N)=O)cc2cc1OC" , is > 100 µM

Looking up CC(OC(=O)N(N(CCCl)S(C)(=O)=O)S(C)(=O)=O)c1ccc([N+](=O)[O-])cc1 (centres undefined) , I see its TGI listed as > 100 µM

* * *

# Tested on: MALME-3M melanoma
# Method notes: NCI tumour cell line growth inhibition, 48 h
Observation type: TGI

// below: answered molecules
Molecule: COC(=O)C1=COc2c(n(C)c3ccccc23)-c2ccccc21
TGI: > 100 µM
//
Molecule: Cc1cc(C)c2c(=O)cc(-c3ccc4ccccc4c3)[nH]c2n1
TGI: > 100 µM
//
Molecule: Cc1c(-c2ccc(O)c(O)c2)oc(=O)c2c(O)cccc12
TGI: 26.9 µM
//
Molecule: O=C(CCc1ccc(O)cc1)NCCCNC(=O)CCc1ccc(O)cc1
TGI: > 100 µM

# molecule Clc1cccc2c1OCC1C(c3ccccc3)=NN(c3ccccc3)C21 (stereo unspecified) ; its TGI = > 100 µM

Lab note: Nc1ncnc2nn(C3OC(CO)C(O)C3O)nc12 (stereo unspecified) gave TGI of > 100 µM

* * *

# Test system: MCF7 breast
# Method notes: NCI tumour cell line growth inhibition, 48 h
Observation type: GI50

Worked set:
Molecule: Cc1cc(S(N)(=O)=O)c(S/C(=N\Nc2ccc([N+](=O)[O-])cc2)c2ccc3ccccc3c2)cc1Cl
Experimental system: MCF7 breast
GI50: 19900 nM
//
Molecule: CC1(C)CC(=O)c2c(ccc(C(=O)C[C@@H](N)CO)c2N)O1
Experimental system: MCF7 breast
GI50: 399 nM
//
Molecule: CC(OC(=O)N(N(CCCl)S(C)(=O)=O)S(C)(=O)=O)c1ccc([N+](=O)[O-])cc1 (stereo not given)
Experimental system: MCF7 breast
GI50: 58000 nM
//
Molecule: Cc1ccc(C(=O)N=Nc2c(O)[nH]c3ccc(Cl)cc23)cc1
Experimental system: MCF7 breast
GI50: 13500 nM
//
Molecule: COc1cc(C2C3=C(COC3=O)Nc3cc4c(cc32)OCO4)cc2c1OCO2 (stereo not given)
Experimental system: MCF7 breast
GI50: 39.3 nM

So the reported GI50 for "CC(=O)c1cccc(NC(=O)c2ccc(NC3=C(Cl)C(=O)N(Cc4ccccc4)C3=O)cc2)c1" , on MCF7 breast, turned out to be 9340 nM

MCF7 breast data for "CC(C)(C)OC(=O)NCCCCCCCCCCn1c2c(c3ccccc3c1=O)C(=O)c1ccccc1-2" ; its GI50: > 100000 nM

Hey, MCF7 breast data for COc1cc(NC(C)CCCN)c2ncccc2c1Sc1ccc(Cl)cc1 (stereo not given) : GI50 came out at 1760 nM

Kindly note: MCF7 breast, "O=Nc1c(O)c2ccccc2c2ccccc12" , GI50 value reported: 1460 nM

Reported GI50 (MCF7 breast) for entry "CC/C=C\C[C@H](O)C/C=C1/C(=O)C=C[C@@H]1C/C=C\CCCC(=O)NC" is 455 nM
